# key: entry, value: GI50
Test system: SK-MEL-28
RUN DESCRIPTION: NCI tumour cell line growth inhibition, 48 h
Calls of active or inactive are those of the source. No stated cut-off is given here; in the data, active = GI50 up to about 1.1 µM and inactive = higher.
RECORDED METRIC: GI50

>>> endpoint_value("Cc1oc2ccccc2c(=O)c1Cn1nnc2ccccc21")
"74 µM (inactive)"
>>> endpoint_value("CC(C)(N)C(=O)N[C@@H]1C(=O)N2[C@@H]1SC(C)(C)[C@@H]2C(=O)O")
"> 100 µM (inactive)"
>>> endpoint_value("O=C(NNC(=O)/C(=C/c1cccc([N+](=O)[O-])c1)NC(=O)c1ccccc1)Nc1ccc(Cl)cc1")
"15.5 µM (inactive)"
>>> endpoint_value("CC(C)Oc1c(N(Cc2ccccc2)c2ccccc2C2SCCCS2)c(=O)c1=O")
"11.2 µM (inactive)"
>>> endpoint_value("COc1ccc2c(c1)-c1c(c3cc(OC)ccc3n1CCN1CCOCC1)CC2")
"57.1 µM (inactive)"
>>> endpoint_value("CC(=O)Nc1cccc(N2C(=O)/C(=C\\c3cccc(Oc4ccccc4)c3)SC2c2ccccc2)c1 (centres undefined)")
"79.1 µM (inactive)"
>>> endpoint_value("COc1ccc(NCn2nc(CCCCCCCCc3nn(CNc4ccc(OC)cc4)c(=S)o3)oc2=S)cc1")
"> 100 µM (inactive)"
>>> endpoint_value("CCCCCCCCCCCCCCCCNCC(O)CN (centres undefined)")
"13.1 µM (inactive)"
>>> endpoint_value("c1ccc(-c2c[nH]c(SC(c3ccccc3)c3ccccc3)n2)cc1")
"33.7 µM (inactive)"
>>> endpoint_value("CCCCCC/C=C1\\CCC(CN2CCCC2)C1=O (centres undefined)")
"19.1 µM (inactive)"
>>> endpoint_value("O/N=C1/CCCCC1NO (centres undefined)")
"> 100 µM (inactive)"
>>> endpoint_value("C=C(C)[C@@H]1CC[C@]2(C(=O)OC3OC(COC4OC(CO)C(OC5OC(C)C(O)C(O)C5O)C(O)C4O)C(O)C(O)C3O)CC[C@]3(C)[C@H](CC[C@@H]4[C@@]5(C)CC[C@H](O)[C@@](C)(CO)[C@@H]5CC[C@]43C)[C@@H]12 (some centres undefined)")
"5.79 µM (inactive)"
>>> endpoint_value("CC(C)=CC1CC(=O)C1(C)Sc1ccccc1 (centres undefined)")
"> 100 µM (inactive)"
>>> endpoint_value("CCOC(=O)c1c(NC(=O)Nc2ccccc2)c(C(N)=O)c2n1CCCCC2")
"> 100 µM (inactive)"
>>> endpoint_value("O=S(=O)(O)c1ccc(/N=N\\c2ccc(/N=N\\c3ccc(/C=C/c4ccc(/N=[N+](/[O-])c5ccc(/C=C/c6ccc(/N=N/c7ccc(/N=N\\c8ccc(S(=O)(=O)O)cc8)cc7)cc6S(=O)(=O)O)c(S(=O)(=O)O)c5)cc4S(=O)(=O)O)c(S(=O)(=O)O)c3)cc2)cc1")
"> 100 µM (inactive)"
>>> endpoint_value("CN1C[C@H]2[C@@H](C1=O)[C@H](c1ccc([N+](=O)[O-])cc1)ON2C")
"> 100 µM (inactive)"
>>> endpoint_value("COc1cc(C2S/C(=C/c3ccccc3)C(=O)N2c2ccc([N+](=O)[O-])cc2)cc(OC)c1OC (centres undefined)")
"> 100 µM (inactive)"
>>> endpoint_value("Cc1ccc(SCC(CF)OCn2cc(F)c(=O)[nH]c2=O)cc1 (centres undefined)")
"> 100 µM (inactive)"
>>> endpoint_value("O=C(O)c1cn2c3c(cc(N4CCN(CCO)CC4)cc3c1=O)SCC2")
"> 100 µM (inactive)"
